Test: Selectivity index, ratio of GI50 for cytotoxicity against human FHC cells to GI50 for cytotoxicity against human HCT-116 cells
Type: toxicity, cell-based
Conditions: FHC cells versus HCT-116 cells, read-out: RatioGI50
The following compounds are listed with their measured selectivity ratio values.
Provide a numeric answer; units are not to be included.

Worked cases, answers included:
compoundstring=N#Cc1c(-c2ccc(Cl)cc2Cl)cc(-c2c[nH]c3ccccc23)[nH]c1=O measured=10.6
compoundstring=N#Cc1c(-c2cccc(Cl)c2Cl)cc(-c2c[nH]c3ccccc23)[nH]c1=O measured=8.09

We next turn to a different compound, shown below.
Exercise: Look up selectivity ratio: N#Cc1c(-c2ccc(Cl)c(Cl)c2)cc(-c2c[nH]c3ccccc23)[nH]c1=O
Solution: 3.86
